molecular target: pre-existing anti-scFv903 antibodies in human serum H8 (human); test: competition ADA bridging ELISA, 100 mcg/ml competitor
Observation type: % reduction in OD (%)
Kindly provide the numeric value in % only, without the unit symbol.

Study these solved cases before continuing.
[[record]]
binder = "scFv 961 (scFv) scFv: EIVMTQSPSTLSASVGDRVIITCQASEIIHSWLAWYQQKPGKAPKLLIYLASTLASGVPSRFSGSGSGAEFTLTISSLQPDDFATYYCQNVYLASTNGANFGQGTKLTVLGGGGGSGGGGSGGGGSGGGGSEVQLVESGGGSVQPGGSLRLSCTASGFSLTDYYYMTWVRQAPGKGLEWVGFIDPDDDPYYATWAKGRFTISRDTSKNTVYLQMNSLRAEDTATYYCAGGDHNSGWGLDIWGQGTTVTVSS"
unit_abbrev = "%"
value_reported = -88.6

[[record]]
binder = "scFv 903 (scFv) scFv: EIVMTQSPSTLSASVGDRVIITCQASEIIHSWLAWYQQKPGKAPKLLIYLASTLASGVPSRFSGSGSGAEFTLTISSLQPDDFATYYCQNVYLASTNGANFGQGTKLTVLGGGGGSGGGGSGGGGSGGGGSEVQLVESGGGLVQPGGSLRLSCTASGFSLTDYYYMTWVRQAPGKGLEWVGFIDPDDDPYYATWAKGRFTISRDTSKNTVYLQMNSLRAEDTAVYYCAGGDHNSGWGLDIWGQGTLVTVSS"
unit_abbrev = "%"
value_reported = -87.3

[[record]]
binder = "scFv 791 (scFv) scFv: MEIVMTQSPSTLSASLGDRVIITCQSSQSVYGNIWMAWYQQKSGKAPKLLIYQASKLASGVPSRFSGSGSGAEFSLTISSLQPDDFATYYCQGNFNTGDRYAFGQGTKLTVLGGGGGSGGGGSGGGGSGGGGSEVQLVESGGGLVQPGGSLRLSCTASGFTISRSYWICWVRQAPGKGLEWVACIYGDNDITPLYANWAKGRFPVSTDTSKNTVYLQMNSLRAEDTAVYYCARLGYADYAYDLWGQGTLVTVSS"
unit_abbrev = "%"
value_reported = -90.7


// recorded % reduction in OD for scFv105 (scFv) scFv: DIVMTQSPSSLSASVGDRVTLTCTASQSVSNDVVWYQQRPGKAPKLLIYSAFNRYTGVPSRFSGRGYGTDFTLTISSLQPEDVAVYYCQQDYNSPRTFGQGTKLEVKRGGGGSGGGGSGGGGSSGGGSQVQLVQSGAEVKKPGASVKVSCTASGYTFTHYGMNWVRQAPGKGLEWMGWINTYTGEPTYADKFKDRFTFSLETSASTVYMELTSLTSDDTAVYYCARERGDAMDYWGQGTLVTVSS : -23.1
